Every entry's value here was drawn from PubChem BioAssay AID256.

Please provide measured T/C for the entries that follow.
# System: CD2F1 mice, L1210 leukemia ip, survival T/C
# test.details: NCI In Vivo Anticancer Drug Screen. Data for tumor model L1210 Leukemia (intraperitoneal) in CD2F1 (CDF1) mice
# study.conditions: endpoint: mean survival time; dose: 300.0 mg/kg/injection; schedule: Q01DX001 (ip); vehicle: other; higher = longer survival
Inconclusive results and toxic doses are left out.

[in] Please give the measured T/C for this compound: `CCOC(=O)c1ccc(N(CCO)CCO)cc1`
[out] 102 % of control

[in] Please give the measured T/C for this compound: `CCCC1=C(CCC)C(F)(F)C1(F)F`
[out] 108 % of control

[in] Please give the measured T/C for this compound: `Cc1[nH]nc(C(F)(F)F)c1N=NN1CCOCC1`
[out] 101 % of control

[in] Please give the measured T/C for this compound: `CN(C)Cc1cc(O)cc(CN(C)C)c1O`
[out] 98 % of control

[in] Please give the measured T/C for this compound: CC(CN(C)C)c1ccccn1 (stereo not given)
[out] 106 % of control

###

Please provide measured T/C for the entries that follow.
# System: CD2F1 mice, L1210 leukemia ip, survival T/C
# test.details: NCI In Vivo Anticancer Drug Screen. Data for tumor model L1210 Leukemia (intraperitoneal) in CD2F1 (CDF1) mice
# study.conditions: endpoint: mean survival time; dose: 200.0 mg/kg/injection; schedule: Q04DX003 (ip); vehicle: other; higher = longer survival
Inconclusive results and toxic doses are left out.

[in] Please give the measured T/C for this compound: `Cc1ccc(CSCc2ccc(C)cc2)cc1`
[out] 107 % of control

[in] Please give the measured T/C for this compound: `CCCCCCCCCCCC(=O)CCCCC`
[out] 97 % of control

[in] Please give the measured T/C for this compound: O=S1(=O)CC23CC=CCC2(CC=CC3)C1 (centres undefined)
[out] 102 % of control

[in] Please give the measured T/C for this compound: `C1=CC2OC1c1ccccc12`
[out] 98 % of control

###

# System: CD2F1 mice, L1210 leukemia ip, survival T/C
# test.details: NCI In Vivo Anticancer Drug Screen. Data for tumor model L1210 Leukemia (intraperitoneal) in CD2F1 (CDF1) mice
# study.conditions: endpoint: mean survival time; dose: 300.0 mg/kg/injection; schedule: Q01DX001 (ip); vehicle: saline; higher = longer survival
Toxic doses and inconclusive results are not listed.
result.type: T/C

[in] Form field - read-out: T/C; system: CD2F1 mice, L1210 leukemia ip, survival T/C; submitted item: CCCCC(CC)CNCCOC(=O)c1ccc([N+](=O)[O-])cc1 (stereo not given)
[out] 102 % of control

[in] Form field - read-out: T/C; system: CD2F1 mice, L1210 leukemia ip, survival T/C; submitted item: `O=C1C=CC(=O)c2nc3c(nc21)[nH]c1ccccc13`
[out] 97 % of control

[in] Form field - read-out: T/C; system: CD2F1 mice, L1210 leukemia ip, survival T/C; submitted item: `NC(N)=N/C(N)=N\c1cnc([N+](=O)[O-])s1`
[out] 93 % of control

[in] Form field - read-out: T/C; system: CD2F1 mice, L1210 leukemia ip, survival T/C; submitted item: `Cc1[nH]c2cc([N+](=O)[O-])ccc2c1[N+](=O)[O-]`
[out] 93 % of control

[in] Form field - read-out: T/C; system: CD2F1 mice, L1210 leukemia ip, survival T/C; submitted item: `O=C1c2ccccc2C(=O)c2c(Cl)cc(Cl)cc21`
[out] 102 % of control

[in] Form field - read-out: T/C; system: CD2F1 mice, L1210 leukemia ip, survival T/C; submitted item: CCOC(=O)C(Cc1ccccc1OC)P(=O)(OCC)OCC (stereo not given)
[out] 96 % of control

[in] Form field - read-out: T/C; system: CD2F1 mice, L1210 leukemia ip, survival T/C; submitted item: COc1ccc(CC(N)C(=O)NC2C(CO)OC(n3cnc4c(N)ncnc43)C2O)cc1 (stereo not given)
[out] 100 % of control

[in] Form field - read-out: T/C; system: CD2F1 mice, L1210 leukemia ip, survival T/C; submitted item: C=C(C)C1(CC)C(=O)NC(=S)N(C)C1=O (stereo not given)
[out] 101 % of control

[in] Form field - read-out: T/C; system: CD2F1 mice, L1210 leukemia ip, survival T/C; submitted item: `CC(=O)N(CCCCCCN(N=O)C(C)=O)N=O`
[out] 116 % of control

[in] Form field - read-out: T/C; system: CD2F1 mice, L1210 leukemia ip, survival T/C; submitted item: `O=c1c2nccnc2nc2n1CCCCC2`
[out] 103 % of control

###

Please provide measured T/C for the entries that follow.
# Test system: CD2F1 mice, L1210 leukemia ip, survival T/C
# test.details: NCI In Vivo Anticancer Drug Screen. Data for tumor model L1210 Leukemia (intraperitoneal) in CD2F1 (CDF1) mice
# study.conditions: endpoint: mean survival time; dose: 5.0 mg/kg/injection; schedule: Q01DX009 (ip); vehicle: saline with Tween-80; higher = longer survival
Toxic doses and inconclusive results are not listed.

[in] Please give the measured T/C for this compound: `COC1=C(N=[N+]=[N-])C(=O)C(OC)=C(N=[N+]=[N-])C1=O`
[out] 101 % of control

[in] Please give the measured T/C for this compound: CC(C)=CC1CC(C)C2(CCC3(C)CC4C(C(=O)CC4(C)O)/C(C=O)=C\CC32)O1 (centres undefined)
[out] 94 % of control

[in] Please give the measured T/C for this compound: `Cc1cc(CSC(=N)N)c(C)cc1CSC(=N)N`
[out] 92 % of control

[in] Please give the measured T/C for this compound: `C/C=C\C[P+](c1ccccc1)(c1ccccc1)c1ccccc1`
[out] 102 % of control

###

# Tested on: CD2F1 mice, L1210 leukemia ip, survival T/C
# test.details: NCI In Vivo Anticancer Drug Screen. Data for tumor model L1210 Leukemia (intraperitoneal) in CD2F1 (CDF1) mice
# study.conditions: endpoint: mean survival time; dose: 100.0 mg/kg/injection; schedule: Q01DX005 (ip); vehicle: distilled water + Tween-80
Toxic doses and inconclusive results are not listed. How the source made its calls: active means survival T/C of 150% or more; inactive means T/C below 125% in these data.
Choose one outcome from this list and give only that: t for active, f for inactive

[in] Name the outcome recorded for O=c1nc(/C=C(\O)c2ccccc2)ccn1C1OC(CO)C(O)C1O (stereo not given) in the assay.
[out] f

[in] Name the outcome recorded for COc1ccc(Nc2ncnc3c2ncn3C2OC(CO)C(O)C2O)cc1 (stereo not given) in the assay.
[out] f

[in] Name the outcome recorded for Nc1ncnc2c1c1c(=O)[nH]c(=O)[nH]c1n2C1OC(CO)C(O)C1O (stereo not given) in the assay.
[out] t

[in] Name the outcome recorded for CCOC(=O)CCCCCSc1nn(C2OC(CO)C(O)C2O)c(=O)[nH]c1=O (stereo not given) in the assay.
[out] f

[in] Name the outcome recorded for NNc1nc2c(=O)[nH]cnc2n1C1OC(CO)C(O)C1O (stereo not given) in the assay.
[out] f

###

Please provide measured T/C for the entries that follow.
# Tested on: CD2F1 mice, L1210 leukemia ip, survival T/C
# test.details: NCI In Vivo Anticancer Drug Screen. Data for tumor model L1210 Leukemia (intraperitoneal) in CD2F1 (CDF1) mice
# study.conditions: endpoint: mean survival time; dose: 100.0 mg/kg/injection; schedule: Q01DX009 (ip); vehicle: saline; higher = longer survival
Toxic doses and inconclusive results are not listed.

[in] Please give the measured T/C for this compound: NC(CCCCNC(c1ccccc1)(c1ccccc1)c1ccccc1)C(=O)O (stereo unspecified)
[out] 103 % of control

[in] Please give the measured T/C for this compound: COC(=O)C(N)CCCCNc1ccc2c(cc1=O)C(NC(C)=O)CCc1cc(OC)c(OC)c(OC)c1-2 (stereo unspecified)
[out] 114 % of control

[in] Please give the measured T/C for this compound: C=CCC(C)C(C)C (stereo unspecified)
[out] 100 % of control

[in] Please give the measured T/C for this compound: O=C1NC(=O)C2C3CCC(O3)C12 (stereo unspecified)
[out] 102 % of control

[in] Please give the measured T/C for this compound: `NCCc1cc(O)c(O)c(O)c1`
[out] 122 % of control

[in] Please give the measured T/C for this compound: `NCC(=O)Nc1ccccc1`
[out] 103 % of control

[in] Please give the measured T/C for this compound: O=C(O)CC1NCCC12OCCO2 (stereo unspecified)
[out] 98 % of control

[in] Please give the measured T/C for this compound: COc1cc2c(cc1OC)C1Cc3ccc4cc(OC)c(OC)cc4c3CN1CC2 (stereo unspecified)
[out] 94 % of control

[in] Please give the measured T/C for this compound: COC(=O)CC(NC(=O)C(F)(F)F)C(=O)OC (stereo unspecified)
[out] 94 % of control

[in] Please give the measured T/C for this compound: `COCCCN1CCN(c2ccccc2OC)CC1`
[out] 88 % of control

[in] Please give the measured T/C for this compound: `CCOC(=O)NC(C)(C)CN(C(=O)OCC)C(C)(C)CO`
[out] 98 % of control
